Source: patent US4028351A

experiment: LD50 (rat) i.p.; conditions: in vivo, ip
# key: entry, value: LD50
assay-readout: LD50

- O=C1NCC2(CCN(CCc3ccc4c(c3)OCO4)CC2)O1: 235 mg/kg
- O=C1NCC2(CCN(CCc3ccc(F)cc3)CC2)O1: 282 mg/kg
- O=C1NCC2(CCN(CCc3ccccc3)CC2)O1: 230 mg/kg
- O=C1NCC2(CCN(C(c3ccccc3)c3ccccc3)CC2)O1: 346 mg/kg
- O=C1NCC2(CCN(Cc3ccccc3)CC2)O1: 319 mg/kg
- O=C1NCC2(CCN(CCOc3ccccc3)CC2)O1: 344 mg/kg
- O=C1NCC2(CCN(CCc3cccc(C(F)(F)F)c3)CC2)O1: 344 mg/kg
